# System: NCI/ADR-RES ovarian
# experiment: NCI-60 one-dose screen, 48 h (100 = growth as untreated, 0 = no growth, -100 = all killed)
# experimental-context: 10 µM unless noted
This is part of a sample that, as a whole, favours compounds with a hit. Of some 83,000 tested, about 20% had one in any assay.
recorded-endpoint: growth (%)

INSERT INTO results (molecule, unit_name, reported_measurement) VALUES
  ('NC(=O)OCCO', '%', 105),
  ('CCOC(=O)N[C@H]1CCc2cc(OC)c(OC)c(OC)c2-c2ccc(SC)c(=O)cc21', '%', 0.533),
  ('N#Cc1ccc2nc[nH]c2c1', '%', 110),
  ('CCCC(=O)c1cccs1', '%', 101),
  ('Cc1cc(CO)c(O)c(CO)c1', '%', 96.1),
  ('Cc1ccccc1CC(N)C(=O)O (configuration not stated)', '%', 114),
  ('COC1C(=O)CCC2(CO2)C1(O)C1(C)OC1CCC(C)C (configuration not stated)', '%', 86.8);

* * *

# System: HT29 colon
# experiment: NCI-60 one-dose screen, 48 h
# experimental-context: 10 µM unless noted
The panel holds about 83,000 compounds, 20% with a hit somewhere; the sample as a whole holds those more often. Calls of active or inactive are those of the source. The calls were made as follows: active = growth percent below 10; inactive = the rest.
Classes used: active, inactive

INSERT INTO assay_data (compound, label) VALUES
  ('CC1CCC(C(C)(C)[N+](C)(C)C)CC1 (configuration not stated)', 'inactive'),
  ('O=C(O)c1ccc([N+](=O)[O-])cc1S(=O)(=O)O', 'inactive'),
  ('CCCCCCCCCCCCCCCCCC(=O)NCCNC(=O)CCCCCCCCCCCCCCCCC', 'inactive'),
  ('O=C(O)c1ccccc1Cc1ccc2c(c1)CCCC2', 'inactive'),
  ('Cc1ccc2nc(N)nnc2c1', 'inactive'),
  ('C(=C\c1ccncc1)/c1ccncc1', 'inactive'),
  ('C=C(C)COc1ccc(C(C)(C)C)cc1', 'inactive'),
  ('Cc1cc(C(=O)c2ccccc2)cc(C)c1O', 'inactive'),
  ('c1ccc2c(NCCCN3CCN(CCCNc4c5ccccc5nc5ccccc45)CC3)c3ccccc3nc2c1', 'active'),
  ('Cc1ccc([N+](=O)[O-])c(C)n1', 'inactive'),
  ('CC(=O)CSc1ncnc2nc[nH]c12', 'inactive'),
  ('Nc1nc(Cl)cc(Cl)n1', 'inactive'),
  ('COC(CCCl)c1ccc(Cl)cc1 (configuration not stated)', 'inactive'),
  ('CC(=O)Nc1ccc(O)c(C)c1', 'inactive'),
  ('BrCc1cccc(C[P+](c2ccccc2)(c2ccccc2)c2ccccc2)c1', 'inactive'),
  ('Cc1ccc(C)c2c1CCC2=O', 'inactive'),
  ('Nc1nnc2cc(F)ccc2n1', 'inactive'),
  ('Nc1c(O)c(S(=O)(=O)O)c(O)c2c1C(=O)c1ccccc1C2=O', 'inactive'),
  ('C/C(O)=C(/C=N/C(=S)Nc1ccccc1)C(=O)Nc1ccccc1C', 'inactive'),
  ('CC1(C)CCC(C)(C)NC(=S)N1', 'inactive'),
  ('CC(C)(C)CC1(C)NC(=O)NC1=O (configuration not stated)', 'inactive'),
  ('O=Cc1c(O)c2ccccc2[nH]c1=O', 'inactive'),
  ('CC1CCC(C)(C)c2ccccc21 (configuration not stated)', 'inactive'),
  ('NNC(=O)N/N=C1\C(=O)N(c2nccs2)C(=O)C(=O)C1c1nc2ccccc2s1 (configuration not stated)', 'inactive'),
  ('O=S(=O)(O)C(C(I)I)S(=O)(=O)O', 'inactive'),
  ('Nc1ccccc1SC1CC(=O)N(c2ccc(Cl)c(Cl)c2)C1=O (configuration not stated)', 'inactive'),
  ('Cc1ccc(S(=O)(=O)NC(=O)NCCSSCCNC(=O)NS(=O)(=O)c2ccc(C)cc2)cc1', 'inactive'),
  ('CC(=O)c1cccc(NS(=O)(=O)c2ccc(C)cc2)c1', 'inactive'),
  ('Cc1ccc(Cc2ccc(C)cc2)cc1', 'inactive'),
  ('O=C(CCl)Oc1ccc([N+](=O)[O-])cc1', 'inactive'),
  ('OC(CCN1CCCCC1)(c1ccccc1)c1ccccc1', 'inactive'),
  ('COC1OC(C(O)C(O)CO)C(O)C(O)C1O (configuration not stated)', 'inactive'),
  ('COc1ccc(Br)c2c1C(=O)CC2', 'inactive'),
  ('CCOC(=O)c1ccc(NC(C)=O)o1', 'inactive'),
  ('CC(C)c1ncc([N+](=O)[O-])n1C', 'inactive'),
  ('Cc1nc(C)c(C(=O)O)cc1C(=O)O', 'inactive'),
  ('N=C(N)c1nn(C2OC(CO)C(O)C2O)c2nc[nH]c(=O)c12 (configuration not stated)', 'inactive'),
  ('COC1=C(OC)C(=O)C(SC/C=C(\C)CCCC(C)CCCC(C)CCCC(C)C)=CC1=O (configuration not stated)', 'inactive'),
  ('CN1C(=O)NC(c2ccc(Cl)cc2)(c2ccc(Cl)cc2)C1=O', 'inactive'),
  ('CN(C(=S)S(=O)(=O)C12CC3CC(CC(C3)C1)C2)c1ccccc1', 'inactive'),
  ('Nc1ccc(F)c(Cl)c1F', 'inactive'),
  ('CC1CC2C3CCC4=CC(=O)CCC4(C)C3CCC2(C)C1(O)C(=O)CO (configuration not stated)', 'inactive'),
  ('CC(=O)c1cccc(N(C)S(=O)(=O)c2ccc(C)cc2)c1', 'inactive'),
  ('Cc1cccc(C)c1NC(=S)/N=C\c1c(O)[nH]c(=O)[nH]c1=O', 'inactive'),
  ('CCOc1ccc(NC(=S)N2CCC(CCCC3CCN(C(=S)Nc4ccc(OCC)cc4)CC3)CC2)cc1', 'inactive'),
  ('S=C=Nc1ccc2ccccc2c1', 'inactive'),
  ('NNc1ncnc2nc[nH]c12', 'inactive'),
  ('Oc1cc(O)c2c(c1)O[C@H](c1ccc(O)c(O)c1)[C@@H](O)C2', 'inactive'),
  ('Nc1cc2c(cc1Cl)C(=O)c1ccccc1C2=O', 'inactive'),
  ('Cc1ccc2nc(-c3ccc(N=Cc4ccccc4O)cc3)sc2c1', 'inactive'),
  ('CC(C)C(C)(C)C(=O)C(C)(C)C(C)(C)C', 'inactive'),
  ('NC(CCl)=NCC12CC3CC(CC(C3)C1)C2', 'active');

* * *

Recorded growth values for a group of molecules are listed next.
# Tested on: HT29 colon
# experiment: NCI-60 one-dose screen, 48 h (100 = growth as untreated, 0 = no growth, -100 = all killed)
# experimental-context: 10 µM unless noted
The panel holds about 83,000 compounds, 20% with a hit somewhere; the sample as a whole holds those more often.
recorded-endpoint: growth (%)

INSERT INTO assay_data (molecule, unit_name, reported_measurement) VALUES
  ('CCCCNc1ccc(-c2ccc(NCCCC)cc2)cc1', '%', 101),
  ('CSCC[C@@H]1C(=O)N(C)[C@H](C(C)(C)C)N1C(=O)c1ccccc1', '%', 116),
  ('CC(C)N(CCCC#N)C(C)C', '%', 86.6),
  ('COC(=O)c1ccc([N+](=O)[O-])c(C)c1', '%', 121),
  ('CC12CCC3c4ccc(O)cc4CCC3C1CCC2=O (configuration not stated)', '%', 96.4),
  ('CC1(C)CC(=O)C=C(N)C1', '%', 96.1),
  ('Nc1ccn(C2CC(N)C(CO)O2)c(=O)n1 (configuration not stated)', '%', 81.3);

* * *

# System: SNB-75 CNS
# experiment: NCI-60 one-dose screen, 48 h (100 = growth as untreated, 0 = no growth, -100 = all killed)
# experimental-context: 10 µM unless noted
# Experimental: Growth inhibition of the SNB-75 human tumor cell line is measured as a screen for anti-cancer activity. Cells are grown in 96 well plates and exposed to the test compound for 48 hours. Compounds are tested at a single concentration, which is 10^-5 M for most compounds. The reported endpoint is percent growth (GI% or GIPRCNT), where numbers from 0 - 100% represent growth inhibition, and numbers from -100% - 0 represent cell death. For example, a value of 40 represents 60% growth inhibition. […]
Compounds without any hit were thinned out: in the full panel of roughly 83,000, 20% have a hit.
Kindly return true if reported growth is no lower than 80%; return false if it is lower.

INSERT INTO measurements (compound, experimental_system, label) VALUES
  ('CCOC(C=O)OCC', 'SNB-75 CNS', 'true'),
  ('Nc1ncnc(Nc2ccc(C(F)(F)F)cc2)n1', 'SNB-75 CNS', 'true'),
  ('CN(C)c1ccc(/C=C/C(=O)c2ccc(NC(N)=O)cc2)cc1', 'SNB-75 CNS', 'false'),
  ('C/C(=N\N=C(/C)c1cccc([N+](=O)[O-])c1)c1cccc([N+](=O)[O-])c1', 'SNB-75 CNS', 'true'),
  ('OCCc1ccc(Cl)cc1', 'SNB-75 CNS', 'true'),
  ('Clc1ncnc2nc[nH]c12', 'SNB-75 CNS', 'true'),
  ('O=C(c1ccc(Cl)cc1)N1CCCCC1', 'SNB-75 CNS', 'true'),
  ('COc1nc(Nc2cccc(C(F)(F)F)c2)nc(OC)n1', 'SNB-75 CNS', 'true'),
  ('CN(CCCN(C)CCC1CCCCC1)CCC1CCCCC1', 'SNB-75 CNS', 'false'),
  ('Cc1nc(C)c(C(=O)O)cc1C(=O)O', 'SNB-75 CNS', 'true'),
  ('COC1(OC)C2(Cl)C(Cl)=C(Cl)C1(Cl)C1COCC12 (stereo not drawn)', 'SNB-75 CNS', 'true'),
  ('Oc1ccc2ccccc2c1CN1CCOCC1', 'SNB-75 CNS', 'true'),
  ('NC(=O)c1cc2c3ccccc3ccn2c1-c1ccccc1', 'SNB-75 CNS', 'false');
